B1: glmS ribozyme (parent)
chain: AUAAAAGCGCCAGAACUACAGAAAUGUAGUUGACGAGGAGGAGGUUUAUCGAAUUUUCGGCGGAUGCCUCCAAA

Variants of: B1
assay-method-text: self-cleavage kobs at 10000 uM GlcN6P; higher = faster cleavage; RNA array
run-parameters: with glucosamine-6-phosphate
Fewer inactive variants are shown than the library holds.
value-type: self-cleavage kobs at 10000 uM GlcN6P

# residue-string, test-result
measured = [
    ("AUAAAAGCGCCAGAACUACAGAAAUGUAGUUGACGUGGAGGAGCUUGAUCGAAUUUUCGGCGGAUGCCUCCAAA", "< 1e-05 s⁻¹"),
    ("AUAAAAGCGCCAGAACUACAGAAAUGUAGUUGACGAGGAACAGGUUUCUCGAAUUUUCGGCGGAUGCAUUCAAA", "< 1e-05 s⁻¹"),
    ("AUAAAAGCGCGAGAACUACAGAAAUGUAGUUGACGAGGUGGAGUUUUCUCGAAUUUUCGGCGGAUGCCUCCAAA", "< 1e-05 s⁻¹"),
    ("AUAAAAGCGCCAGAACUACAGAAAUGUAGUUGACGAGGAGGAGGUUUAUCGAAUUUUUGACGGAUGCCUCCAAA", "< 1e-05 s⁻¹"),
    ("AUAAAAGCGCCAGAACUACAGAAAUGUAGUUGUCGAGGAGGAGGUUUAUUGAAUUUUCGGCGGAUGCCUCCAAA", "< 1e-05 s⁻¹"),
]

**Q:** Need self-cleavage kobs at 10000 uM GlcN6P, item `AUAAAAGCGUCAGAACUACAGAAAUGUAGUUGACGAGGAGGAUGUUUAUCGAAUUUUCGGCGGAUGCCUCCAAA`
**A:** < 1e-05 s⁻¹

**Q:** Need self-cleavage kobs at 10000 uM GlcN6P, item `AUAAAAGCGCCAGGACUACAGAAAUGUAGUUGACGAGGAGGAGCUUUAUCGAAUUUUCGGCGGAUGCCUCCAAA`
**A:** 0.000423 s⁻¹

**Q:** Need self-cleavage kobs at 10000 uM GlcN6P, item `AUAAAAGCGCCAGAACUACAGAAAUGUAGUGGACGAGGAGGAGGUUUAUCGAAUUUUCGGCGGAUGCCUCAAAA`
**A:** 0.00392 s⁻¹

**Q:** Need self-cleavage kobs at 10000 uM GlcN6P, item `AUAAAAGCGCCAGAACUACAGAAAUGUAGUUGACGAGGUGGAGGUUUAUCGAAUUUUCCGCGGAUGCCUCCAAA`
**A:** < 1e-05 s⁻¹

**Q:** Need self-cleavage kobs at 10000 uM GlcN6P, item `AUAAAAGCGCCAGAACUACAGAAAUGUAGUUGACAAGGAGGAGGUUUACCGAAUUUUCGGCGGAUGCCUCCAAA`
**A:** < 1e-05 s⁻¹

**Q:** Need self-cleavage kobs at 10000 uM GlcN6P, item `AUAAAAGCGCCAGAACUACAGAAAUGUAGUUGACCAGGAGGCGGUUUAUCGAAUUUUCGGCGGAUGCCUUCAAA`
**A:** < 1e-05 s⁻¹
